Tested on: L1210 leukemia ip in BDF1 mice, survival T/C
Assay: NCI In Vivo Anticancer Drug Screen. Data for tumor model L1210 Leukemia (intraperitoneal) in B6D2F1 (BDF1) mice
Conditions: endpoint: mean survival time; dose: 400.0 mg/kg/injection; schedule: Q01DX001 (ip); vehicle: Klucel (hydroxypropylcellulose) (HPC); higher = longer survival
Toxic doses and inconclusive results are not listed.
What T/C was measured for each of the following?

Query string: Please report T/C for the following compound: CCOc1ccc(-n2c(O)c(N=Nc3ccccc3C)c(=O)n(-c3ccc(OC)cc3)c2=S)cc1
Result string: 89 % of control

Query string: Please report T/C for the following compound: Cc1c2ccc3ccccc3c2cc2cccc(C#N)c12
Result string: 98 % of control

Query string: Please report T/C for the following compound: Cc1ccc(Nc2ccc(Nc3ccc(C)cc3)c3c2C(=O)c2c(O)ccc(O)c2C3=O)cc1
Result string: 97 % of control

Query string: Please report T/C for the following compound: C#CCN1CCC2=C(C1)c1c(O)cc(C(C)C(C)CCCCC)cc1OC2(C)C (stereo not given)
Result string: 103 % of control

Query string: Please report T/C for the following compound: Clc1ccc(/C=C2\c3cc(Cl)ccc3-c3c(Cl)cc(Cl)cc32)cc1
Result string: 95 % of control

Query string: Please report T/C for the following compound: COC(=O)c1cccc(Nc2ccccc2C(=O)O)c1
Result string: 93 % of control

Query string: Please report T/C for the following compound: C/C(=N\NC(N)=O)C1CCC(c2ccccc2)CC1 (stereo not given)
Result string: 92 % of control

Query string: Please report T/C for the following compound: CC1(C(Cl)Cl)C=CC=CC1=O (stereo not given)
Result string: 104 % of control

Query string: Please report T/C for the following compound: O=C1C2(Cl)C(Cl)=C(Cl)C1(Cl)C1(Cl)C(Cl)=C(Cl)C(=O)C21Cl (stereo not given)
Result string: 97 % of control

Query string: Please report T/C for the following compound: COc1ccc2c(c1)CCC1=C(C)C(=O)CCC12C (stereo not given)
Result string: 98 % of control
